All values here come from the Kinase Knowledgebase extract (Sharma et al. 2016).

target: EGFR (human)
readout_type: IC50 (nM)
Write it as a number; the unit nM goes unstated.

## Input Entry `CCN(CC)CCN1CCc2[nH]c(C=C3C(=O)Nc4cccc(Br)c43)c(C)c2C1=O` , system EGFR (human): what IC50 was measured?
## Output 330

Further cases:
## Input Entry `Cc1c(C=C2C(=O)Nc3cccc(-c4c(F)cccc4F)c32)[nH]c2c1C(=O)N(CCN1CCCCC1)CC2` , system EGFR (human): what IC50 was measured?
## Output 530

## Input # repeat for `Cc1c(C=C2C(=O)Nc3cccc(-c4cccc(Cl)c4F)c32)[nH]c2c1C(=O)N(CCN1CCCC1)CC2`
## Output 13800

## Input # repeat for `CCN(CC)CCN1CCc2[nH]c(C=C3C(=O)Nc4cc(NC=O)c(F)cc43)c(C)c2C1=O`
## Output 370

## Input # repeat for `Cc1c(C=C2C(=O)Nc3cccc(C4CCNCC4)c32)[nH]c2c1C(=O)N(CCN1CCCC1)CC2`
## Output 590
